systemUnderTest: Ba/F3-KDR-transfected cells (Homo sapiens)
testMethodNotes: Ba/F3-KDR (minus IL3) cellular proliferation assay, Alamar Blue
Assay type: cell-based
settings: minus IL3
Overview of recorded BAF3-KDR (MIN IL3) 96 well pIC50 for various compounds

>  <compound>
COc1cc(OC)cc(N(CC2CC2)c2ccc3ncc(-c4nnn(C)n4)nc3c2)c1 [Compound 82]

>  <BAF3-KDR (MIN IL3) 96 well pIC50>
<5

$$$$
>  <compound>
COc1cc(OC)cc(N(CC2CC2)c2ccc3ncc(-c4ccc(N)nc4)nc3c2)c1 [Compound 94]

>  <BAF3-KDR (MIN IL3) 96 well pIC50>
<5

$$$$
>  <compound>
COc1cc(OC)cc(N(CC2CC2)c2ccc3ncc(-c4ccn(CCO)c4)nc3c2)c1 [Compound 56]

>  <BAF3-KDR (MIN IL3) 96 well pIC50>
5.29

$$$$
>  <compound>
COc1cc(OC)cc(N(CC2CC2)c2ccc3ncc(C#Cc4ccncc4)nc3c2)c1 [Compound 23]

>  <BAF3-KDR (MIN IL3) 96 well pIC50>
5.36

$$$$
>  <compound>
COc1cc(OC)cc(N(CC2CC2)c2ccc3ncc(-n4cncn4)nc3c2)c1 [Compound 50]

>  <BAF3-KDR (MIN IL3) 96 well pIC50>
<5

$$$$
>  <compound>
COc1cc(OC)cc(N(CC2CC2)c2ccc3ncc(-c4cn(C)cn4)nc3c2)c1 [Compound 21]

>  <BAF3-KDR (MIN IL3) 96 well pIC50>
<5

$$$$

Then there is this compound:
Task item: Reported BAF3-KDR (MIN IL3) 96 well pIC50, compound COc1cc(OC)cc(N(CC2CC2)c2ccc3ncc(-c4cn(C)nn4)nc3c2)c1 [Compound 71] : ____
Reply: <5

====

systemUnderTest: Ba/F3-KDR-transfected cells (Homo sapiens, UniProt P35968)
Sequence (P35968 whole entry, change not shown): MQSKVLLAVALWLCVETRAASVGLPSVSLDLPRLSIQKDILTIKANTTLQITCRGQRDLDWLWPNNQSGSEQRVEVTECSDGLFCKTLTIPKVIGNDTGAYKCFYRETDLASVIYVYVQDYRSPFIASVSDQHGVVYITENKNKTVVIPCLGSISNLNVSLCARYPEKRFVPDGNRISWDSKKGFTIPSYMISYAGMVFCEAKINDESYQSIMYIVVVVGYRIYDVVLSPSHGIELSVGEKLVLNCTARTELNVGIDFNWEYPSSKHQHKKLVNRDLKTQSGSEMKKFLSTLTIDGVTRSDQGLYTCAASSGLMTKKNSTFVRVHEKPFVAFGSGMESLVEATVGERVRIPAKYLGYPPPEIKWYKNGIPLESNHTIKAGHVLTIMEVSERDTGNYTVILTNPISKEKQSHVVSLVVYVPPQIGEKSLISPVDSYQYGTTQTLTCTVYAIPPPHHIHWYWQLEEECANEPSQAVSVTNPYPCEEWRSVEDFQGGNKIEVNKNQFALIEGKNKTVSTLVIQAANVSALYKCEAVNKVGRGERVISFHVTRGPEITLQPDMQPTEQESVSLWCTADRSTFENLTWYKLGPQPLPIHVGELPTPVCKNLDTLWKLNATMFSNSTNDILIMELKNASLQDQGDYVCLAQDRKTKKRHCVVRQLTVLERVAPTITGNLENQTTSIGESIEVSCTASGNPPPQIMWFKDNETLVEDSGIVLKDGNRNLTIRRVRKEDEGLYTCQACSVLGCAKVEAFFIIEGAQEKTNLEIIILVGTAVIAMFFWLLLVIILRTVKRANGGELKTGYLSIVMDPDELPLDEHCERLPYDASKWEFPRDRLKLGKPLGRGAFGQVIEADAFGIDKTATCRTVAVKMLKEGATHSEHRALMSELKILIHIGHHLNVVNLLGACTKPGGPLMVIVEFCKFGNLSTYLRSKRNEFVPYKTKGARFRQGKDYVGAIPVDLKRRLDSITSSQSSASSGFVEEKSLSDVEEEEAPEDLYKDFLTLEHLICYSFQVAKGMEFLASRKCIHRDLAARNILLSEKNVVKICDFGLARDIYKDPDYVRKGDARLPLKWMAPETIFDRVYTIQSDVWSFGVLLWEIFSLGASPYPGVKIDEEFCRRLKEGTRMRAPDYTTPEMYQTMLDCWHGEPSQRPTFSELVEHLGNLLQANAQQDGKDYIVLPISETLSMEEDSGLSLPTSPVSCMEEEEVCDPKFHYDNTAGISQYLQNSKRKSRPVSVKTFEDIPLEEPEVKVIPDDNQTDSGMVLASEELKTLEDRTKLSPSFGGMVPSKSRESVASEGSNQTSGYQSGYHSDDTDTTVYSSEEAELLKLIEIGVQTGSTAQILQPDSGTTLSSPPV
testMethodNotes: Ba/F3-KDR (minus IL3) cellular proliferation assay, Alamar Blue
Type: cell-based
settings: minus IL3
quantity: BAF3-KDR (MIN IL3) 384 well pIC50
Enter the number alone.

Examples from the recorded data:
>  <compound>
COc1cc(OC)cc(N(CCCNCCCO)c2ccc3ncc(-c4ccnc(C(=O)NCCCCN)c4)nc3c2)c1 [Compound 132]

>  <systemUnderTest>
Ba/F3-KDR-transfected cells (Homo sapiens, UniProt P35968)

>  <BAF3-KDR (MIN IL3) 384 well pIC50>
5.04

$$$$
>  <compound>
COc1cc(OC)cc(N(CCNC(C)C)c2ccc3ncc(-n4cnc(CO)c4)nc3c2)c1 [Compound 77]

>  <systemUnderTest>
Ba/F3-KDR-transfected cells (Homo sapiens, UniProt P35968)

>  <BAF3-KDR (MIN IL3) 384 well pIC50>
5.29

$$$$
>  <compound>
COc1cc(OC)cc(N(CCCNC(C)C)c2ccc3ncc(-c4ccnc(N)c4)nc3c2)c1 [Compound 143]

>  <systemUnderTest>
Ba/F3-KDR-transfected cells (Homo sapiens, UniProt P35968)

>  <BAF3-KDR (MIN IL3) 384 well pIC50>
5.33

$$$$
>  <compound>
COCCN(c1cc(OC)cc(OC)c1)c1ccc2ncc(-c3ccn(C)c3)nc2c1 [Compound 6]

>  <systemUnderTest>
Ba/F3-KDR-transfected cells (Homo sapiens, UniProt P35968)

>  <BAF3-KDR (MIN IL3) 384 well pIC50>
5.18

$$$$

Task item: Reported BAF3-KDR (MIN IL3) 384 well pIC50, compound COc1cc(OC)cc(N(CCNC(C)C)c2ccc3ncc(N4CCC(CN)CC4)nc3c2)c1 [Compound 67] : ____
Reply: 5

Task item: Reported BAF3-KDR (MIN IL3) 384 well pIC50, compound COc1cc(OC)cc(N(CCO)c2ccc3ncc(-c4ccc(N5CCN(C)CC5)nc4)nc3c2)c1 [Compound 163] : ____
Reply: 5.3
